assay: chemical genetic growth profiling, strain panel (AID 1159580);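 note: tested at 20 µM; growth read once vehicle control cultures reached saturation at 30 °C; 1 = growth at the plate median or of vehicle wells; lower values mean less growth of the strain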; conditions: S. cerevisiae deletion strains, growth OD, locus YBL105C, strain PKC1, hits give low values
The whole screen tested about 5,500 compounds, of which about 2,000 (36%) were called active. About 18% were inconclusive and are not listed. Some of the results follow.
Provide the recorded normalized growth for the entries that follow.
A bare number is all that is needed in reply.

Tell me the measured normalized growth of "CCn1nc(C)cc1-c1nnc(Sc2ncc([N+](=O)[O-])s2)n1C" , please.
0.968

Tell me the measured normalized growth of "CC(C)(C)c1cc2nc(C(F)(F)F)cc(NNC(=O)c3ccc(Cl)cc3)n2n1" , please.
0.994

Tell me the measured normalized growth of "O=C1c2ccccc2O[C@@H](c2ccccc2)[C@@H]1NCc1ccccc1" , please.
0.916

Tell me the measured normalized growth of "C/C(=N/Nc1nc(C(C)(C)C)cs1)c1ccc(Cl)c(Cl)c1" , please.
0.983

Tell me the measured normalized growth of "N#CCCCCOc1ccc2c(=O)cc(-c3ccccc3)oc2c1" , please.
0.978

Tell me the measured normalized growth of "Cc1ccc(C(O)(c2ccccc2)c2ccccc2)c2ccccc12" , please.
0.985

Cited source for all entries: PubChem BioAssay AID1159580
